Test: PK protocol: pharmacokinetic parameters in male Sprague Dawley rats (intravenous or oral)
Format: in vivo
Details: plasma, oral administration, 3 mg/kg, rat
Method: Pharmacokinetic parameters were determined in male Sprague Dawley rats (Charles River, UK, 250-350 g; or Vital River Laboratory Animal Technology Co Ltd, Beijing, China, 7-9 weeks old). Animals were individually housed during the study and maintained under a 12 h light/dark cycle. For intravenous administration, compounds were formulated as a solution in water or DMSO:PBS [10:90] in 2 mL/kg dosing volume and administered via tail vein. […]
Counter-ions that a name gives are not always drawn.
assay_metric: AUC (ng·h/mL)
Give just the number in ng·h/mL; leave the unit off.

query: Provide only the value of recorded AUC for CCN(CC)CCCS(=O)(=O)NC(=O)Nc1c2c(cc3c1CCC3)CCC2 [Example 3, potassium salt]
result: 2270
